Test system: HPBALL cells
Test: CellTiter-Glo cell viability assay, HPBALL
Format: cell-based, human
Settings: Homo sapiens, HPBALL; T-ALL; 72 h, CellTiter-Glo, n = 3
pIC50: −log10 of the molar value.
pIC50 of 5 or higher: Y. Under 5: N.

Could you verify whether the entry C[C@@H]1CC[C@H]2[C@@H](C)C(OCc3ccc(/C=C/C(=O)NO)cc3)O[C@@H]3O[C@@]4(C)CC[C@@H]1[C@]32OO4 (stereo partly drawn) shows pIC50 of no less than 5?
Y

Record: C[C@@H]1CC[C@H]2[C@@H](C)C(SCCCCCC(=O)NO)O[C@@H]3O[C@@]4(C)CC[C@@H]1[C@]32OO4 (stereo partly drawn)
Y

Record: `C[C@H]1[C@@H](SCc2ccc(C(=O)NO)cc2)O[C@@H]2O[C@@]3(C)CC[C@H]4[C@H](C)CC[C@@H]1[C@@]24OO3`
Y

Record: C[C@@H]1CC[C@H]2[C@@H](C)C(OCc3ccc(/C=C/C(=O)O)cc3)O[C@@H]3O[C@@]4(C)CC[C@@H]1[C@]32OO4 (stereo partly drawn)
N

Record: `C[C@H]1[C@@H](Sc2ccc(CC(=O)NO)cc2)O[C@@H]2O[C@@]3(C)CC[C@H]4[C@H](C)CC[C@@H]1[C@@]24OO3`
Y

###

Give measured pIC50 for each item. Keep answers brief.
Test system: HL60 cells
Test: CellTiter-Glo cell viability assay, HL60
Type: cell-based, human
Conditions: Homo sapiens, HL-60; AML; 72 h, CellTiter-Glo, n = 3
Kindly note that pIC50 refers to -log10 of the concentration in mol/L and answer with the value alone.

Look at this compound and give its reported pIC50. C[C@@H]1CC[C@H]2[C@@H](C)C(OCc3ccc(/C=C/C(=O)NO)cc3)O[C@@H]3O[C@@]4(C)CC[C@@H]1[C@]32OO4 (stereo partly drawn)
5.88

Record: C[C@@H]1CC[C@H]2[C@@H](C)C(OCc3ccc(/C=C/C(=O)O)cc3)O[C@@H]3O[C@@]4(C)CC[C@@H]1[C@]32OO4 (stereo partly drawn)
5.60

Record: `C[C@H]1[C@@H](Sc2ccc(CC(=O)NO)cc2)O[C@@H]2O[C@@]3(C)CC[C@H]4[C@H](C)CC[C@@H]1[C@@]24OO3`
5.79

###

Give measured pIC50 for each item. Keep answers brief.
Test system: P. falciparum 3D7
Experiment: microbe, parasite or virus in culture
Assay type: cell-based
Conditions: Plasmodium falciparum, 3D7, 72 h; asexual blood stages, three days incubation; n ≥ 2 in duplicate, mean ± SD; read-out: Pf3D7 IC50
Kindly note that pIC50 refers to -log10 of the concentration in mol/L and answer with the value alone.

Look at this compound and give its reported pIC50. C[C@H]1[C@@H](O)O[C@@H]2O[C@@]3(C)CC[C@H]4[C@H](C)CC[C@@H]1[C@@]24OO3 [DHA, dihydroartemisinin]
8.52

Record: `C[C@H]1[C@H](SCc2ccc(C(=O)NO)cc2)O[C@@H]2O[C@@]3(C)CC[C@H]4[C@H](C)CC[C@@H]1[C@@]24OO3`
8.44

Record: C[C@@H]1CC[C@H]2[C@@H](C)C(OCc3ccc(/C=C/C(=O)O)cc3)O[C@@H]3O[C@@]4(C)CC[C@@H]1[C@]32OO4 (stereo partly drawn)
8.23

Record: C[C@@H]1CC[C@H]2[C@@H](C)C(OCc3ccc(/C=C/C(=O)NO)cc3)O[C@@H]3O[C@@]4(C)CC[C@@H]1[C@]32OO4 (stereo partly drawn)
8.59

Record: C[C@@H]1CC[C@H]2[C@@H](C)C(SCCCCCC(=O)NO)O[C@@H]3O[C@@]4(C)CC[C@@H]1[C@]32OO4 (stereo partly drawn)
8.28

Record: `C[C@H]1[C@@H](SCc2ccc(C(=O)NO)cc2)O[C@@H]2O[C@@]3(C)CC[C@H]4[C@H](C)CC[C@@H]1[C@@]24OO3`
8.48

###

Give measured IC50 for each item. Keep answers brief.
Molecular target: human HDAC6 (hHDAC6) (Homo sapiens, UniProt Q9UBN7)
Sequence (Q9UBN7 1-1215): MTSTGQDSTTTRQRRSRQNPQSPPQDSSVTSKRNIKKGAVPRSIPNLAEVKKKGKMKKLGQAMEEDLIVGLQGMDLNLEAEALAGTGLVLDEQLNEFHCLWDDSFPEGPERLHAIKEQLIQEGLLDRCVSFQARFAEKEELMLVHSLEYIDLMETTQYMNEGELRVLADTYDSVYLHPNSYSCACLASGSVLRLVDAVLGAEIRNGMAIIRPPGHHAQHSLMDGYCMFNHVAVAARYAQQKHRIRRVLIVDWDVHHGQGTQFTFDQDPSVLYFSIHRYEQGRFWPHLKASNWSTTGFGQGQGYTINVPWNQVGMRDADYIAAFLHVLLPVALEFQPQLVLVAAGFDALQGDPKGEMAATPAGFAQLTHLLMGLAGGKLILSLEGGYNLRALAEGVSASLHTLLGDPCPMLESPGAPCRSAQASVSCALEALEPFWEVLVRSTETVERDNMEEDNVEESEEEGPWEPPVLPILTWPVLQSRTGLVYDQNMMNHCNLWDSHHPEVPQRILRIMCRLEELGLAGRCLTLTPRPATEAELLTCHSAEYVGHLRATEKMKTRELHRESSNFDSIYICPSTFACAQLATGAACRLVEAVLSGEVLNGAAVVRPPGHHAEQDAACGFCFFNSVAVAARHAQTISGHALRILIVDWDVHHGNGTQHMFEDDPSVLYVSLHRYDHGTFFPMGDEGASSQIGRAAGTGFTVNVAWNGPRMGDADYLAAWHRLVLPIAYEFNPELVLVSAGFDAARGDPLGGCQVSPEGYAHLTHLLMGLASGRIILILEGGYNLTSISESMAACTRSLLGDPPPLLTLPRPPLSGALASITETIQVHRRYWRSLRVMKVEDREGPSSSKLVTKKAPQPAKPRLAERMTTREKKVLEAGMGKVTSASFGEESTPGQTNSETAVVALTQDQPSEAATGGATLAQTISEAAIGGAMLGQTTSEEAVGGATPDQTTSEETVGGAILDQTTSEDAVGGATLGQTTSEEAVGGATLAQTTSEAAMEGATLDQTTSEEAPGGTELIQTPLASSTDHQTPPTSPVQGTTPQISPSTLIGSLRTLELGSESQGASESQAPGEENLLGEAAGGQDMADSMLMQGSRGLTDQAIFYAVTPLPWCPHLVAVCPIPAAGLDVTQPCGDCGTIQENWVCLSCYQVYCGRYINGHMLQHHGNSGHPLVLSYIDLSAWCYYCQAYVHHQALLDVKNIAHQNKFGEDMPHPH
Response body: numeric value in µM, unit text excluded.

Look at this compound and give its reported IC50. `C[C@H]1[C@H](OCc2ccc(C(=O)NO)cc2)O[C@@H]2O[C@@]3(C)CC[C@H]4[C@H](C)CC[C@@H]1[C@@]24OO3`
0.014

Record: C[C@@H]1CC[C@H]2[C@@H](C)C(SCCCCCC(=O)NO)O[C@@H]3O[C@@]4(C)CC[C@@H]1[C@]32OO4 (stereo partly drawn)
0.045

Record: `C[C@H]1[C@H](Sc2ccc(CC(=O)NO)cc2)O[C@@H]2O[C@@]3(C)CC[C@H]4[C@H](C)CC[C@@H]1[C@@]24OO3`
1

Record: `C[C@H]1[C@@H](Sc2ccc(CC(=O)NO)cc2)O[C@@H]2O[C@@]3(C)CC[C@H]4[C@H](C)CC[C@@H]1[C@@]24OO3`
1.1

Record: C[C@@H]1CC[C@H]2[C@@H](C)C(OCc3ccc(/C=C/C(=O)NO)cc3)O[C@@H]3O[C@@]4(C)CC[C@@H]1[C@]32OO4 (stereo partly drawn)
0.187

###

Target: human HDAC6 (hHDAC6) (Homo sapiens, UniProt Q9UBN7)
Construct: purchased BPS Bioscience Inc. 50006
Sequence (Q9UBN7 1-1215): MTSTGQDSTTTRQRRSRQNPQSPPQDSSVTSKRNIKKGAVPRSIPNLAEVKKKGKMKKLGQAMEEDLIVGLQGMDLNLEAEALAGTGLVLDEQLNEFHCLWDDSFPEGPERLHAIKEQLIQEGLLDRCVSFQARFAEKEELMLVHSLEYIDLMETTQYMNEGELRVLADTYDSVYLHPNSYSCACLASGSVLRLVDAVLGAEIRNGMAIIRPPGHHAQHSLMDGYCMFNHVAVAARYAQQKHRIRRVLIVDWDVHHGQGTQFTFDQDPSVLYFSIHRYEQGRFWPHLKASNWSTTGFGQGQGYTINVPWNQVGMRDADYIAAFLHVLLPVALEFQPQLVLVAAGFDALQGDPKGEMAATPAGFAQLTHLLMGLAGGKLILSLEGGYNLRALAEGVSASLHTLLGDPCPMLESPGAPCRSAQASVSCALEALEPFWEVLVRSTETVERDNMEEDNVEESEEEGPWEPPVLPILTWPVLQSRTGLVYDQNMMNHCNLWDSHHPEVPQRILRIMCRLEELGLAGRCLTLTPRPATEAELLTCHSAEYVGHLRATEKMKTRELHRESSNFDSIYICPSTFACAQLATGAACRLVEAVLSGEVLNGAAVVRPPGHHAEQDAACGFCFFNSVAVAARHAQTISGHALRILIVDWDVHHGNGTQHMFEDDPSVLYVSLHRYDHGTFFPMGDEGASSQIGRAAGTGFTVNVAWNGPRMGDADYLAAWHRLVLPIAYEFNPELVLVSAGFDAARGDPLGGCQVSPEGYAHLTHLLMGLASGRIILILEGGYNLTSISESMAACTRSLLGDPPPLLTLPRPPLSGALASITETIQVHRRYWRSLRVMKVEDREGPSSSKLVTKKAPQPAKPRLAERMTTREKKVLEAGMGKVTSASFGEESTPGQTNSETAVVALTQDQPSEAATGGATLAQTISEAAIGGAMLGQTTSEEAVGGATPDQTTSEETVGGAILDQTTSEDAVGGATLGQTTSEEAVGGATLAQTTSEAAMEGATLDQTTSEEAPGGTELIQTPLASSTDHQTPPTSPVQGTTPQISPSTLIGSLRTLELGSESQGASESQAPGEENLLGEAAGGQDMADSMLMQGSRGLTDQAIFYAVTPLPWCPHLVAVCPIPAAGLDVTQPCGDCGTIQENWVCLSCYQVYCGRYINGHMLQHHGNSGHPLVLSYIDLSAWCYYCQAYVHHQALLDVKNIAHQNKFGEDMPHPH
Test: In vitro human HDAC6 assay (ZMAL substrate)
Assay type: biochemical
Details: Selectivity Index = (hHDAC1 IC50)/(hHDAC6 IC50)
value kind: SI 1/6
Number, no unit, nothing else.

Look at this molecule and give its reported SI 1/6. `C[C@H]1[C@H](SCc2ccc(C(=O)NO)cc2)O[C@@H]2O[C@@]3(C)CC[C@H]4[C@H](C)CC[C@@H]1[C@@]24OO3`
68

Record: C[C@@H]1CC[C@H]2[C@@H](C)C(OCc3ccc(/C=C/C(=O)NO)cc3)O[C@@H]3O[C@@]4(C)CC[C@@H]1[C@]32OO4 (stereo partly drawn)
3
